Origin of values: patent US20250276955A1

Biological target: SARS-COV-2 M^pro (authentic N- and C-termini) (Severe acute respiratory syndrome coronavirus 2, UniProt P0DTD1)
Assay: biochemical
Format: biochemical
Conditions: read-out: M^pro Ki
VALUE TYPE: pKi
// scale note: pKi = -log10(conc_M); give the bare number

Would you kindly share the measured pKi for COc1cc(-c2cccc3[nH]ncc23)cc(C(=O)CO)c1OCC(=O)N(C)C [CDD-1886] ?
4.67

----------
Molecular target: SARS-COV-2 M^pro (authentic N- and C-termini) (Severe acute respiratory syndrome coronavirus 2, UniProt P0DTD1)
Assay: biochemical
Assay type: biochemical
Conditions: Table 3, column b (footnote not given); read-out: Kiapp (nM)^b
Can you tell me log10 Ki for the items I'm about to list?
Scale: log10; quantity: Ki; unit before log: nM

Would you kindly share the measured log10 Ki for C[C@H](NC(=O)c1cccc2nc(-c3cncc4ccccc34)n(CCCC(=O)O)c12)c1ccc2ccccc2c1 ?
1.94

One more molecule: CCC[C@H](NC(=O)c1cccc2nc(-c3cncc4ccccc34)n(C3CCNCC3)c12)c1ccc(C(F)(F)F)cc1
3.23

One more molecule: CNC(=O)[C@H]1C[C@H](n2c(-c3cncc4ccccc34)nc3cccc(C(=O)N[C@@H](C)c4ccccc4)c32)C1
2.75

One more molecule: CCC[C@H](NC(=O)c1cccc2nc(-c3cncc4ccccc34)n(CCCC(=O)NC)c12)c1ccc(C)cc1
1.44

One more molecule: CCC[C@H](NC(=O)c1cccc2nc(-c3cncc4ccccc34)n([C@H]3CC[C@H](C(=O)NC)C3)c12)c1ccc(C(F)(F)F)cc1
2.82

One more molecule: CNC(=O)CCCn1c(-c2cnccc2C)nc2cccc(C(=O)N[C@@H](C)c3ccc4ccccc4c3)c21
2.63

One more molecule: CNC(=O)[C@H]1C[C@H](n2c(-c3cncc4ccccc34)nc3cccc(C(=O)NC(C)c4ccc(C(F)(F)F)cc4)c32)C1 (stereo partly shown)
1.68

----------
Experiment: Metabolic stability in mouse liver microsomes
Format: in vitro ADME
Details: mouse, liver microsomes
Can you tell me microsomal CLint at 2 μM for the items I'm about to list?
State just the number; it will be interpreted in µL/min/mg.

Would you kindly share the measured microsomal CLint at 2 μM for CCC[C@H](NC(=O)c1cccc2nc(-c3cncc4ccccc34)n([C@H]3C[C@H](C(=O)NC)C3)c12)c1ccc(OC(F)F)cc1 ?
39.5

One more compound: COc1cc(-c2cccc3[nH]ncc23)cc(C=O)c1OCC(=O)N(C)C
147

One more compound: COc1cc(-c2cccc3[nH]ncc23)cc(C=O)c1OCC(=O)N1CCC(Oc2cccc(C(=O)N(C)C)c2)C1 (stereo not drawn)
130

----------
Target: SARS-COV-2 M^pro-His6 (Severe acute respiratory syndrome coronavirus 2)
Assay: biochemical
Assay type: biochemical
Conditions: 25 nM enzyme, 15 μM fluorescent peptide, Morrison equation; Inactive = less than 50% inhibition at 25 μM compound; read-out: M^pro-His Ki
VALUE TYPE: Ki (nM)
State just the number; it will be interpreted in nM.

Would you kindly share the measured Ki for COc1cc(-c2cccc3[nH]ncc23)cc(C(=O)CO)c1OCC(=O)N(C)C ?
15700

One more compound: CN(C)C(=O)COc1ccc(-c2cccc3[nH]ncc23)cc1C=O
37

One more compound: COc1cc(-c2cccc3[nH]ncc23)cc(C=O)c1OCC(=O)N(C)C
44.8

One more compound: COc1cc(-c2cccc3[nH]ncc23)cc(C=O)c1OCC(=O)N1CCC(Oc2cccc(C(=O)N(C)C)c2)C1 (stereo not shown)
20.2
